Item-by-item account of aptazyme ON/OFF ratio
B1: Pistol ribozyme (parent)
chain: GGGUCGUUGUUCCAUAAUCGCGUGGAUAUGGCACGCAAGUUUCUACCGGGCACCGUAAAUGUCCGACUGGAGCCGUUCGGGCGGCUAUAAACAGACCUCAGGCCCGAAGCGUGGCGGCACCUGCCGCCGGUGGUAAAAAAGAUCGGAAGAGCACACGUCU

- Variants of: B1
- procedure-details: aptazyme ON/OFF ratio, guanine; higher = stronger switching; co-transcriptional cleavage with and without guanine
measured-attribute: aptazyme ON/OFF ratio

mutation_id="G9U U10G U11G C12G C13G" experimental_value=1.31
mutation_id="U7C G9U U10C C12G C13G" experimental_value=1.06
mutation_id="U7C U8A G9U U10C U11A C12G C13G" experimental_value=1.09
mutation_id="G9U U10C U11G C12G" experimental_value=1.2
mutation_id="U7C U8G U10C U11C C13G" experimental_value=1.09
mutation_id="U7A U8C U10C U11A C13G" experimental_value=1.16
mutation_id="U7A G9A U11A C12A" experimental_value=1.34
mutation_id="G9C U10G U11C C12G C13G" experimental_value=1.24
mutation_id="U7G U8A G9A U10A U11G C12G" experimental_value=1.2
mutation_id="U8G G9U U10G C12U" experimental_value=1.02
mutation_id="U8C G9C U10A C12U C13U" experimental_value=1.14
mutation_id="U7C U8A G9A U10C C12A C13A" experimental_value=1.14
mutation_id="U7A G9C U10G C12A" experimental_value=1.09
mutation_id="U8C U11G C13G" experimental_value=1.06
mutation_id="U7G U8A G9C U11G C12A" experimental_value=1.03
mutation_id="U8G G9A U10C C12U C13G" experimental_value=1.08
mutation_id="U7G U8G G9U U10A C12A C13A" experimental_value=1.21
mutation_id="U8C U10A U11A C12A" experimental_value=1.17
mutation_id="G9U U10C U11G C12G C13U" experimental_value=1.12
mutation_id="U7C U8G G9C U10G U11A C12G C13U" experimental_value=1.24
mutation_id="U8G G9A U10A U11G C12G C13G" experimental_value=1.05
mutation_id="U7C U8G G9C U10G C12G C13A" experimental_value=1.18
mutation_id="U7A U8C G9U U10A C12U C13U" experimental_value=1.42
mutation_id="U7A G9C U11C C12G" experimental_value=1.06
mutation_id="U7G U8C G9U U10G U11C C12A" experimental_value=2.33
mutation_id="U7C U8G G9U U10A C12A" experimental_value=1.33
mutation_id="U8A G9C C12U C13A" experimental_value=1.21
mutation_id="U7A U8C U10C U11C C12U C13A" experimental_value=1.06
mutation_id="U8C G9U U10G C12G" experimental_value=1.6
mutation_id="U7A U8C G9C U10G U11G C12G C13A" experimental_value=1.08
mutation_id="U8A G9U U11C C13U" experimental_value=1.03
mutation_id="U7A G9A U10G C12G C13U" experimental_value=1.18
mutation_id="U7G G9A U10C U11G C12U C13A" experimental_value=1.11
mutation_id="U8A U10C C12U C13A" experimental_value=1.22
mutation_id="U7G U8C G9A U11C C12G" experimental_value=1.4
mutation_id="U8A U10A U11A C12U C13A" experimental_value=1.2
mutation_id="U7A U8G G9U U11G C13G" experimental_value=1.4
mutation_id="U7A U8C G9C U11C C12G C13G" experimental_value=1.13
mutation_id="U11G C12G C13A" experimental_value=1.2
mutation_id="U8A G9C U10G U11G C12U C13A" experimental_value=1.08
mutation_id="U7C G9U C12U" experimental_value=1.07
mutation_id="U7A U8G G9U U10C U11C C12A C13U" experimental_value=1.2
mutation_id="U8A U10G U11C C12G C13U" experimental_value=1.38
mutation_id="U8A G9U U10C C12G" experimental_value=1.04
mutation_id="U8A G9U U10A C12A C13A" experimental_value=1.22
mutation_id="U7C U8A G9U U10C U11G C13U" experimental_value=1.19
mutation_id="U7A U8C G9U U10C C13A" experimental_value=1.09
mutation_id="U7C G9U U10G U11A C12U C13U" experimental_value=1.1
mutation_id="U7A U8A U11C C13G" experimental_value=1.09
mutation_id="G9A U10A U11G C12U C13A" experimental_value=1.34
mutation_id="U7A U8G U10A U11G C12U" experimental_value=1.12
mutation_id="U7C U10A U11A" experimental_value=1.29
mutation_id="U7C U8C G9U U10G U11G C12G C13U" experimental_value=1.06
mutation_id="G9A U11G C12U C13G" experimental_value=1.42
mutation_id="U7A U10A U11A C12U C13A" experimental_value=1.15
mutation_id="U7C U8C G9U U10G U11A C12G C13U" experimental_value=1.08
mutation_id="U7G U8G G9U U10C C12G C13G" experimental_value=1.1
mutation_id="U7G U8C U10A" experimental_value=1.33
mutation_id="U7G G9C C12U C13A" experimental_value=1.3
mutation_id="U7G U8G G9U U11A C12A C13U" experimental_value=1.18
mutation_id="U7A U8C G9C U11A C12A C13A" experimental_value=1.07
mutation_id="U7C U11G" experimental_value=1.2
mutation_id="U7G G9A U10G C13G" experimental_value=1.13
mutation_id="U8A G9C U10C U11A C12G C13A" experimental_value=1.06
mutation_id="U7A U8A G9A U10C C12G C13A" experimental_value=1.11
mutation_id="U7C U8A G9A U10A U11C C12U" experimental_value=1.09
mutation_id="U8C U10A U11G C12U C13U" experimental_value=1.27
mutation_id="U7C U8A U10A U11C C12A" experimental_value=1.09
mutation_id="U7A G9A U10A U11A C13U" experimental_value=1.21
mutation_id="U7G U10C U11G C12G" experimental_value=1.15
mutation_id="U7G U8A U10A U11C C12A C13G" experimental_value=1.25
mutation_id="U7G U10C U11C C12U" experimental_value=1.12
mutation_id="U8C G9U U10C U11G C12A C13U" experimental_value=1.12
mutation_id="U7C U8G U10C U11G C12U C13G" experimental_value=1.17
mutation_id="U7G U8A U11G C13G" experimental_value=1.15
mutation_id="U7G U11C C12A C13A" experimental_value=1.12
mutation_id="U7C U8A G9C U10A C13G" experimental_value=1.07
mutation_id="U7A U8G G9U U10G C12A C13U" experimental_value=1.15
mutation_id="U8C G9A U10A U11G C12A C13A" experimental_value=1.1
mutation_id="U7A U8A G9C U10C U11C C12A" experimental_value=1.05
mutation_id="U7G U8C G9A U10G C12A" experimental_value=1.18
mutation_id="U7G U8C G9A U10C U11C C13G" experimental_value=1.03
mutation_id="U8C G9U U10A C12U" experimental_value=1.56
mutation_id="U7G G9C U10G U11A C12G C13A" experimental_value=1.14
mutation_id="U7G U8G G9A U10A U11A C12G" experimental_value=1.16
mutation_id="U7G U8G U10A U11A" experimental_value=2.25
mutation_id="U7A U8C G9C U10A U11G C12A C13G" experimental_value=1.12
mutation_id="U7G U8G G9U U10G U11G C13G" experimental_value=1.08
mutation_id="U7G U8A G9A U10G U11C C12G" experimental_value=1.17
mutation_id="U7C U8C G9C U10A U11G C13A" experimental_value=1.13
mutation_id="U8C G9C U10G C12A C13G" experimental_value=1.08
